Tested on: EKVX
Assay: NCI tumour cell line growth inhibition, 48 h
The source made the active and inactive calls. Rule as the data show it: active = GI50 up to about 1.1 µM and inactive = higher. Square brackets hold non-standard residues; d marks the D form. Peptide text beside a SMILES is read from it. * marks the point of attachment. ξ: configuration not given here. NMeY = CN[C@@H](Cc1ccc(O)cc1)C(=O)O; Cbz = O=C(OCc1ccccc1)*; ξA = CC(N)C(=O)O
# valid calls are active, inactive; nothing else

Name the outcome recorded for O=C(NC(=O)c1cn(CCNCCO)c(=O)[nH]c1=O)OCc1ccccc1 in the assay.
inactive

Name the outcome recorded for Fc1ccc(N2C(=S)SC(=N\c3ccccc3)/C2=N/c2ccccc2)cc1 in the assay.
inactive

Name the outcome recorded for O=C1/C(=C/c2ccc(O)cc2)CCC1CNc1ccccc1 (centres undefined) in the assay.
inactive

Name the outcome recorded for CO[C@H]1Nc2c(ccc(C)c2O)C(=O)N2C=C(/C=C/C(N)=O)C[C@@H]12 in the assay.
active

Name the outcome recorded for CCCC(C)n1c(C)nc2c1C(=O)c1ccccc1C2=O (centres undefined) in the assay.
inactive

Name the outcome recorded for CC(C)C(Cl)CC/C(CBr)=C(\Cl)CCl (centres undefined) in the assay.
inactive

Name the outcome recorded for COC(=O)C1C(O)C(C)C(=O)C(C)/C=C\C=C(C)C(=O)Nc2c(C)c(OC(C)=O)c3c(c2O)C(=O)C(C)=C2OCOC(=C23)C(C)=CC(C)(O)C(O)C(C)C1O (centres undefined) in the assay.
inactive

Name the outcome recorded for O=[N+]([O-])c1cccc2nc3ccccc3c(NCCCn3ccnc3[N+](=O)[O-])c12 in the assay.
active

Name the outcome recorded for CC1=C(N2CC2)C(=O)c2nc3n(c2C1=O)CCC3OC(=O)CCl (centres undefined) in the assay.
active

Name the outcome recorded for O=c1[nH]c(-c2ccc(Cl)cc2)cc2ccsc12 in the assay.
inactive

Name the outcome recorded for CC(=O)N1[C@H](C(=O)O)CS[C@H]1c1ccncc1 in the assay.
inactive

Name the outcome recorded for NS(=O)(=O)c1ccc(NC(=O)c2cccc3c(Nc4ccc(S(N)(=O)=O)cc4)c4ccccc4nc23)cc1 in the assay.
inactive

Name the outcome recorded for CN(C)c1ccc(/N=N/c2ccccn2)cc1 in the assay.
inactive

Name the outcome recorded for COc1ccc(/C(CCl)=C(\Nc2ccccc2)c2ccc(OC)c(OC)c2)cc1OC in the assay.
inactive

Name the outcome recorded for O=C1c2nn(-c3ccccc3)nc2C(c2ccccc2)N1c1ccccc1 (centres undefined) in the assay.
inactive

Name the outcome recorded for C[C@@H]1CC[C@]2(C)C3(C)CC[C@]2(OC3=O)[C@@]12CC(c1ccoc1)OC2=O (some centres undefined) in the assay.
inactive

Name the outcome recorded for C=C(CO)[C@H]1Oc2ccc(C(C)=O)cc2[C@@H]1O in the assay.
inactive

Name the outcome recorded for CCCCCC(=O)N[C@H]1CCc2cc(OC)c(OC)c(OC)c2-c2ccc(SC)c(=O)cc21 in the assay.
active

Name the outcome recorded for CCC1=C(c2ccc(OC)cc2)CC[C@@]2(CCNC2=O)[C@@H]1C in the assay.
inactive

Name the outcome recorded for O=C(Nc1cc([N+](=O)[O-])cc([N+](=O)[O-])c1)OC1C2CCC1C1OC1C2 (centres undefined) in the assay.
inactive

Name the outcome recorded for O=c1c2nn3c(=O)n(-c4ccccc4)c(=O)c3nn2c(=O)n1-c1ccccc1 in the assay.
inactive

Name the outcome recorded for Cc1ccnc2sc3ccccc3c(=O)c12 in the assay.
inactive

Name the outcome recorded for CCCCCCCCCCCCCCCCCC(=O)OCC(CN(C)CCN(C)C)OC(=O)CCCCCCCCCCCCCCCCC (centres undefined) in the assay.
inactive

Name the outcome recorded for COc1cc([C@@H]2c3cc4c(cc3[C@@H](NC(=O)NO)[C@H]3COC(=O)[C@H]23)OCO4)cc(OC)c1O in the assay.
inactive

Name the outcome recorded for CC(=O)[O-].[O-]c1c(Cl)cc(Cl)cc1/C=N/Nc1ccccn1.[Zn+2] in the assay.
inactive

Name the outcome recorded for COc1cc2c[n+](C)c3c4ccccc4ccc3c2cc1OC in the assay.
inactive

Name the outcome recorded for CNC(=O)OCc1c2ccncc2c(C)c2c1[nH]c1ccc(OC)cc12 in the assay.
inactive

Name the outcome recorded for C/C1=C\[C@H](C)C[C@H](C)OC(=O)C[C@H](c2ccc(O)cc2)NC(=O)[C@H](Cc2ccc(O)c(I)c2)N(C)C(=O)[C@H](C)NC(=O)[C@@H](C)C1 in the assay.
active

Name the outcome recorded for C=CCN(Cc1ccncc1)C(=O)C(O)(c1ccccc1)c1ccccc1 in the assay.
inactive

Name the outcome recorded for C=C1C(=O)O[C@H]2C1C[C@@H](OC(C)=O)/C(C)=C/CC[C@@]1(C)O[C@H]21 (some centres undefined) in the assay.
inactive

Name the outcome recorded for CCc1cccc(C(C)CC)c1/N=C(/NC(=O)c1ccccc1C(=O)N/C(=N/c1c(CC)cccc1C(C)CC)SC)SC (centres undefined) in the assay.
inactive

Name the outcome recorded for COc1ccc2c(CCN)c(C(=O)O)[nH]c2c1 in the assay.
inactive

Name the outcome recorded for COc1ccc(C[C@@H](C(=O)N[C@@H](C)C(N)=O)N(C)C(=O)[C@@H]2CCCN2C(=O)[C@H](CC(C)C)NC(=O)C(C)NC(=O)OCc2ccccc2)cc1 (some centres undefined) (Cbz-[ξA]LP[NMeY](Me)A-NH2) in the assay.
inactive

Name the outcome recorded for COC(=O)CCC(NC(=S)N/N=C(\C)c1ccccn1)C(=O)OC (centres undefined) in the assay.
inactive

Name the outcome recorded for CC1=CC(=O)/C(=C/NC(N)=S)C(=O)O1 in the assay.
inactive

Name the outcome recorded for C=CC(C)(C)C(=C)C(=O)N(C)c1ccccc1I in the assay.
inactive

Name the outcome recorded for COc1ccccc1NC(=O)CC(=O)N1N=C(C)C(/N=N/c2ccc(S(N)(=O)=O)cc2)C1=O (centres undefined) in the assay.
inactive

Name the outcome recorded for CC1CCC(C(C)(C)c2ccccc2)C(=O)C1 (centres undefined) in the assay.
inactive

Name the outcome recorded for CN(C)CCCc1c2ccccc2nc2ccc(Cl)cc12 in the assay.
inactive
